Measured values drawn from PubChem BioAssay (NCI) for this set.

tested on: NCI-H522 lung; test: NCI tumour cell line growth inhibition, 48 h
measured-parameter: TGI

Example cases with answers are listed next.
1. C[n+]1c2ccccc2n2c3ccccc3c(NCCc3ccccn3)c(C#N)c21 : 3.95 µM
2. COc1cc(OC)c2c(=O)c(OC)c(-c3ccc4c(c3)OCO4)oc2c1OC : > 100 µM

Shift focus to the following entry.
Prompt: Could you share which TGI value was measured for CC1=C(C(=O)Nc2ccc3[nH]ncc3c2)C(c2ccc(Cl)c(Cl)c2)CC(=O)N1 (stereo unspecified) ?
Response: > 25 µM

----------
tested on: SF-539 CNS; assay: NCI tumour cell line growth inhibition, 48 h
Returns condition met if the recorded TGI is greater than or equal to 30 µM, and condition not met otherwise.

1. CCOC(=O)/C(C#N)=C1/Sc2c(ncn(/N=C/c3ccc(OC)cc3)c2=O)N1c1ccccc1 : condition met
2. CCC(C)[C@H](NC(=O)NC(=O)NC(=O)CI)C(=O)OC (stereo not given in full) : condition not met
3. Cn1c2ccccc2c(=O)c2c(O)cc3c(c21)CC(C1(C)CO1)O3 (stereo not given) : condition not met
4. C1COCCOCCOCCOCCOCCO1.[Cl][Sn]([Cl])([c]1ccccc1)[c]1ccccc1 : condition not met

Prompt: Decide: is the reported value of TGI for `C/C(=N\NS(=O)(=O)c1ccc(C)cc1)c1cc2ccccc2n1C` equal to or greater than 30 µM?
Response: condition met

Prompt: Given COc1ccc2c(c1)C1OCCNC1CC2 (stereo not given) , state whether its TGI is at least 30 µM.
Response: condition met

Prompt: Assess whether reported TGI for `O=C(NNC(=S)Nc1ccc(Br)cc1)c1cc(-c2ccccc2)nc2ccccc12` sits at 30 µM or higher.
Response: condition met

Prompt: Dear colleague, could you confirm whether `CCC/C(Cl)=N\OC(=O)Nc1cccc(C(F)(F)F)c1` has TGI at or above 30 µM?
Response: condition met

Prompt: Exam item: decide whether the reported TGI for `Cc1c(-c2ccccc2)c(C#N)c2nnn(C3CCCCC3)c(=O)n12` is at least 30 µM.
Response: condition met

Prompt: Could you verify whether the entry N#CC(Nc1cccc(C(F)(F)F)c1)c1ccccc1C(F)(F)F (stereo not given) shows TGI of no less than 30 µM?
Response: condition met

----------
Each entry below lists one item and its recorded TGI value.
test system: IGROV1 ovarian; experiment: NCI tumour cell line growth inhibition, 48 h

Below are worked cases with known answers.
1) O=C(NNc1ccc(F)cc1)C1CCC(CNS(=O)(=O)c2ccc(Cl)c(Cl)c2)CC1 (centres undefined) : > 50 µM
2) Cc1cc(=O)n2c3c(c4c(cc13)c(CO)cc(=O)n4C)OC2 : > 100 µM

Prompt: Fill blank: measured TGI of the compound `N#Cc1ccsc1NC(=O)COC(=O)c1cccc(S(=O)(=O)N2CCc3ccccc32)c1` is ____.
Response: > 100 µM

Prompt: Consider the compound shown here: `CCOC(=O)/C(N=Nc1ccc(-n2c(C)nc3ccc(Br)cc3c2=O)cc1)=C(/C)O` What is its recorded TGI?
Response: > 100 µM

Prompt: Query (compound): `Cc1c(/C=N/NC(=S)Nc2ccccc2)c(=O)n(-c2ccccc2)n1C` ; field requested: TGI
Response: > 100 µM

Prompt: Could you tell me which TGI is on file for COC(=O)C1=Cc2cc(OC)c(OC)cc2[C@H](c2ccc(OC)c(OC)c2)C1C(=O)OC (some centres undefined) ?
Response: > 100 µM

Prompt: Entry under review: `Cc1cc2oc(-c3ccccc3)c(C)c(=O)c2c2c1OC(C)(C)S2` . Reported TGI?
Response: > 100 µM

Prompt: Query (compound): O=C(CC(C(=O)c1cccs1)c1cccs1)c1ccccc1Cl (centres undefined) ; field requested: TGI
Response: > 100 µM

Prompt: Find the recorded TGI belonging to `c1ccc(-c2nnc(SCc3c[nH]c4ccccc34)n2-c2ccccc2)cc1` and report it.
Response: > 100 µM

Prompt: Requested read-out: TGI. Entry: O=C(CC1(O)C(=O)Nc2ccccc21)c1ccc(F)cc1 (centres undefined)
Response: > 100 µM

Prompt: What value of measured TGI is listed for `COc1cccc2c3ccccc3c3nc[nH]c3c12` ?
Response: > 100 µM

Prompt: I'd like to know its TGI. The compound in question is `COc1cc(/C=C/c2nc(N)nnc2C)cc(OC)c1OC`
Response: 37.3 µM

Prompt: // query TGI value for entry `CSCC[C@H](NC(=O)[C@H](CC(C)C)NC(=O)[C@@H](Cc1ccccc1)NC(=O)CNC(=O)[C@@H](NC(=O)[C@H](C)NC(=O)[C@H](Cc1c[nH]c2ccccc12)NC(=O)[C@H](CCC(N)=O)NC(=O)[C@H](N)CC(N)=O)C(C)C)C(N)=O`
Response: > 12.5 µM

Prompt: I am curious: what TGI value has been reported for Cc1ccc(C2SCC(=O)N2c2ccc(-c3ccc(-n4c(-c5ccccc5)nc5ccccc5c4=O)cc3)cc2)cc1 (centres undefined) ?
Response: > 100 µM

Prompt: Need TGI, item `c1ccc(Nc2nc(-c3ccccn3)cs2)nc1`
Response: 5.8 µM

Prompt: Quick check: TGI of `C[C@]12CCC[C@H](O)[C@H]1C[C@H](CO)CC2` ?
Response: > 100 µM

Prompt: Quick one: TGI of CC1(C)CCCC(C)(C2CCC3(C)C2C(O)CC2C4(C)CCC(O)C(C)(C)C4C(O)CC23C)O1 (centres undefined) ?
Response: 38.5 µM

Prompt: What value of TGI has been recorded for this entry: C=C1CC[C@@H]2[C@](C)(COC(C)=O)[C@H](OC(C)=O)CC[C@@]2(C)[C@@H]1CC(Nc1ccc(S(=O)(=O)Nc2cc(C)on2)cc1)C1=CCOC1=O (some centres undefined)
Response: 6.51 µM

Prompt: What value of measured TGI is listed for CC1CCCCN1CC(=O)c1ccc2c(c1)Sc1ccccc1O2 (centres undefined) ?
Response: 19.9 µM

----------
Measured TGI of individual entries
test system: SK-OV-3 ovarian; assay: NCI tumour cell line growth inhibition, 48 h

1) CN1CC[C@]2(c3cccc(O)c3)CC(=O)/C(=C/c3ccccc3)[C@H]1C2 : 8.73 µM

Prompt: What value of TGI has been reported for the following compound? OC(c1cc2ccccc2[nH]1)C1(c2cccnc2)SCCCS1 (stereo unspecified)
Response: > 100 µM

Prompt: Requested field: TGI. Item: O=C(O)C1CCC(=O)N1S(=O)(=O)c1ccccc1 (stereo unspecified)
Response: > 100 µM

Prompt: Quick check: TGI of `Cc1c(-c2ccccc2)c(C#N)c2nnn(C3CCCCC3)c(=O)n12` ?
Response: > 100 µM

Prompt: What value of TGI has been reported for the following compound? COC(=O)C(C(=O)C(=O)Nc1ccccc1C#N)c1nc2ccc([N+](=O)[O-])cc2[nH]c1=O (stereo unspecified)
Response: > 100 µM

Prompt: Suppose we examine the compound COC(=O)C1=CC2CC1C(S(=O)(=O)c1ccccc1)C2S(=O)(=O)c1ccccc1 (stereo unspecified) ; what TGI value has been reported?
Response: > 100 µM

Prompt: Consider the compound shown here: `CCC/C(Cl)=N\OC(=O)Nc1cccc(C(F)(F)F)c1` What is its recorded TGI?
Response: 18 µM

Prompt: Can you share its TGI? I mean this compound: `NC(=O)C(=CNC(=S)Nc1ccc(Cl)c(Cl)c1)C(N)=O`
Response: > 100 µM

Prompt: Suppose we examine the compound `CC(C)(C)OC(=O)NCCC(=O)NC1(c2cc3ccccc3s2)CCCCC1` ; what TGI value has been reported?
Response: 60.1 µM

Prompt: Which measured TGI value corresponds to `O=C(NNC(=S)Nc1ccc(Br)cc1)c1cc(-c2ccccc2)nc2ccccc12` ?
Response: 47.5 µM

Prompt: Reported TGI for Cc1cc(C)c2c(c1)C1=NCCN1C2(O)c1ccc(Cl)cc1 (stereo unspecified) : what is it?
Response: 28.5 µM

----------
test system: SF-539 CNS; assay: NCI tumour cell line growth inhibition, 48 h
measured-parameter: TGI (µM)
# output: bare number, implied unit µM

1) O=C(N/C(=C\c1ccc(/C=C(\NC(=O)c2ccccc2)c2nc3cc(Cl)ccc3[nH]2)cc1)c1nc2cc(Cl)ccc2[nH]1)c1ccccc1 : 78.5
2) N#CCOc1ccc(/C=C/C(=O)c2ccc(Cl)cc2)cc1 : 36.4
3) COC(=O)C[CH2][Ge]([CH3])([CH3])[S]c1ccccc1 : 39.8

Read the next record carefully.
Prompt: I am curious: what TGI value has been reported for `O=C(N=Nc1c(O)[nH]c2ccccc12)c1oc2ccccc2c1CN1CCN(c2ccccc2)CC1` ?
Response: 8.53

----------
system: TK-10 renal; assay: NCI tumour cell line growth inhibition, 48 h
Below, each of the molecules is paired with its reported TGI value.
Give just the number in µM; leave the unit off.

1) Cc1[nH]c(C(=O)Nc2ccccc2OC2CCNCC2)c(Cl)c1Cl : 1.62

Note: attention shifts to another entry.
Prompt: Which measured TGI value corresponds to Cn1c2ccccc2c(=O)c2c(O)cc3c(c21)CC(C1(C)CO1)O3 (stereo not given) ?
Response: 42
